experiment.description: ANTS/DPX liposome leakage assay
conditions.used: 0.5 mM vesicles, peptide 0-20 µM, 3 h incubation, HCl-adjusted PBS 1X pH 4.8; lipid per peptide
Peptide text beside a SMILES is read from it.
assay.metric: Peptide Concentration-induced 50 % ANTS/DPX leakage at pH 4.8 (L/P), 3POPC/1POPG Vesicle
The response must be a number in L/P with no trailing unit.

Known Peptide Concentration-induced 50 % ANTS/DPX leakage at pH 4.8 (L/P), 3POPC/1POPG Vesicle results, listed for orientation:
* CC(C)C[C@H](NC(=O)CN)C(=O)N[C@@H](CC(C)C)C(=O)N[C@@H](CCC(=O)O)C(=O)N[C@@H](CC(C)C)C(=O)N[C@@H](CC(C)C)C(=O)N[C@@H](CCCCN)C(=O)N[C@@H](CC(C)C)C(=O)N[C@@H](CC(C)C)C(=O)N[C@@H](CC(C)C)C(=O)N[C@@H](CCCCN)C(=O)N[C@@H](C)C(=O)N[C@@H](C)C(=O)NCC(=O)N[C@@H](Cc1c[nH]c2ccccc12)C(N)=O [EKK] (H-GLLELLKLLLKAAGW-NH2) | 219
* CC(C)C[C@H](NC(=O)CN)C(=O)N[C@@H](CC(C)C)C(=O)N[C@@H](CCCCN)C(=O)N[C@@H](CC(C)C)C(=O)N[C@@H](CC(C)C)C(=O)N[C@@H](CCC(=O)O)C(=O)N[C@@H](CC(C)C)C(=O)N[C@@H](CC(C)C)C(=O)N[C@@H](CC(C)C)C(=O)N[C@@H](CCCCN)C(=O)N[C@@H](C)C(=O)N[C@@H](C)C(=O)NCC(=O)N[C@@H](Cc1c[nH]c2ccccc12)C(N)=O [KEK] (H-GLLKLLELLLKAAGW-NH2) | 126
* CC(C)C[C@H](NC(=O)CN)C(=O)N[C@@H](CC(C)C)C(=O)N[C@@H](CC(=O)O)C(=O)N[C@@H](CC(C)C)C(=O)N[C@@H](CC(C)C)C(=O)N[C@@H](Cc1c[nH]cn1)C(=O)N[C@@H](CC(C)C)C(=O)N[C@@H](CC(C)C)C(=O)N[C@@H](CC(C)C)C(=O)N[C@@H](CCC(=O)O)C(=O)N[C@@H](C)C(=O)N[C@@H](C)C(=O)NCC(=O)N[C@@H](Cc1c[nH]c2ccccc12)C(N)=O [DHE] (H-GLLDLLHLLLEAAGW-NH2) | 469
* CC(C)C[C@H](NC(=O)CN)C(=O)N[C@@H](CC(C)C)C(=O)N[C@@H](CCCCN)C(=O)N[C@@H](CC(C)C)C(=O)N[C@@H](CC(C)C)C(=O)N[C@@H](CCCCN)C(=O)N[C@@H](CC(C)C)C(=O)N[C@@H](CC(C)C)C(=O)N[C@@H](CC(C)C)C(=O)N[C@@H](CCCCN)C(=O)N[C@@H](C)C(=O)N[C@@H](C)C(=O)NCC(=O)N[C@@H](Cc1c[nH]c2ccccc12)C(N)=O [KKK] (H-GLLKLLKLLLKAAGW-NH2) | 81
* CC(C)C[C@H](NC(=O)CN)C(=O)N[C@@H](CC(C)C)C(=O)N[C@@H](CCCCN)C(=O)N[C@@H](CC(C)C)C(=O)N[C@@H](CC(C)C)C(=O)N[C@@H](CCC(=O)O)C(=O)N[C@@H](CC(C)C)C(=O)N[C@@H](CC(C)C)C(=O)N[C@@H](CC(C)C)C(=O)N[C@@H](Cc1c[nH]cn1)C(=O)N[C@@H](C)C(=O)N[C@@H](C)C(=O)NCC(=O)N[C@@H](Cc1c[nH]c2ccccc12)C(N)=O [KEH] (H-GLLKLLELLLHAAGW-NH2) | 68
* CC(C)C[C@H](NC(=O)CN)C(=O)N[C@@H](CC(C)C)C(=O)N[C@@H](Cc1c[nH]cn1)C(=O)N[C@@H](CC(C)C)C(=O)N[C@@H](CC(C)C)C(=O)N[C@@H](Cc1c[nH]cn1)C(=O)N[C@@H](CC(C)C)C(=O)N[C@@H](CC(C)C)C(=O)N[C@@H](CC(C)C)C(=O)N[C@@H](CCCCN)C(=O)N[C@@H](C)C(=O)N[C@@H](C)C(=O)NCC(=O)N[C@@H](Cc1c[nH]c2ccccc12)C(N)=O [HHK] (H-GLLHLLHLLLKAAGW-NH2) | 111
* CC(C)C[C@H](NC(=O)CN)C(=O)N[C@@H](CC(C)C)C(=O)N[C@@H](Cc1c[nH]cn1)C(=O)N[C@@H](CC(C)C)C(=O)N[C@@H](CC(C)C)C(=O)N[C@@H](CCC(=O)O)C(=O)N[C@@H](CC(C)C)C(=O)N[C@@H](CC(C)C)C(=O)N[C@@H](CC(C)C)C(=O)N[C@@H](CCC(=O)O)C(=O)N[C@@H](C)C(=O)N[C@@H](C)C(=O)NCC(=O)N[C@@H](Cc1c[nH]c2ccccc12)C(N)=O [HEE] (H-GLLHLLELLLEAAGW-NH2) | 122

Pending compound:
Query: Return reported Peptide Concentration-induced 50 % ANTS/DPX leakage at pH 4.8 (L/P), 3POPC/1POPG Vesicle; argument: CC(C)C[C@H](NC(=O)CN)C(=O)N[C@@H](CC(C)C)C(=O)N[C@@H](CCCCN)C(=O)N[C@@H](CC(C)C)C(=O)N[C@@H](CC(C)C)C(=O)N[C@@H](CCCCN)C(=O)N[C@@H](CC(C)C)C(=O)N[C@@H](CC(C)C)C(=O)N[C@@H](CC(C)C)C(=O)N[C@@H](CCC(=O)O)C(=O)N[C@@H](C)C(=O)N[C@@H](C)C(=O)NCC(=O)N[C@@H](Cc1c[nH]c2ccccc12)C(N)=O [KKE] (H-GLLKLLKLLLEAAGW-NH2)
Result: 131

The measured values listed here are drawn from paper PMC9069370.
